# target-of-assay: UniProt:Q9H2X9
# test-summary: KCC2 thallium transport FLIPR-based assay (Tl+ influx in HEK293 cells expressing KCC2)
# assay-setup: 90 min compound incubation at RT, thallium flux at 120 s used to determine EC50
measured-parameter: EC50 (µM)

Worked examples follow.
Prompt: Read off the recorded EC50 for CC(C)c1ccc(Nc2nc(N3C[C@@H](C)O[C@@H](C)C3)nc3c2CN(C(C)C)C3=O)cc1
Completion: 3.76

Prompt: Provide measured EC50 value, entry: CC(C)N1Cc2c(Nc3ccc(C4CCCCC4)cc3)nc(-c3cnn(C)c3)nc2C1=O
Completion: 3.16

Prompt: Give a short answer stating reported EC50 for CC1CN(c2nc(Nc3ccc(C4CCCCC4)cc3)c3c(n2)C(=O)N(C(C)C)C3)CCO1 (stereo not shown) .
Completion: 1.35

[P] CC(C)c1ccc(Nc2nc(N3CCO[C@H](C)C3)nc3c2CN(C(C)C)C3=O)cc1
[Q] C[C@@H]1CN(c2nc3c(c(Nc4ccc(-c5ccc(OCCCCCC(F)(F)F)cc5)cc4)n2)COC3)CCO1
[R] CCN1Cc2c(Nc3ccc(C4CCCCC4)cc3)nc(N3CCO[C@H](C)C3)nc2C1=O
Prompt: Given 3 compounds, produce a descending ranking by EC50. # answer = labels listed in requested order
Completion: P, R, Q

[A] C[C@@H]1CN(c2nc(Nc3ccc(C4CCCCC4)cc3)c3cc(N)cnc3n2)CCO1
[B] CC(C)N1Cc2c(Nc3ccc(-c4ccc(OCCNC(=O)OC(C)(C)C)cc4)cc3)nc(N3CCOC(C4CC4)C3)nc2C1=O (stereo not shown)
[C] CC(C)N1Cc2c(Nc3ccc(C4CCCCC4)cc3)nc(-c3cncs3)nc2C1=O
[D] CC(C)c1ccc(Nc2nc(N3CCSC3)nc3c2CN(C(C)C)C3=O)cc1
Prompt: Please list these in order of increasing EC50. Thank you! // respond by listing labels in the order requested
Completion: B, A, D, C

[a] CC(C)N1Cc2c(Nc3ccc(C4CCCCC4)cc3)nc(N3CCOC(C4CC4)C3)nc2C1=O (stereo not shown) [Example 2]
[b] CC(C)N1Cc2c(Nc3ccc(C4CCCCC4)cc3)nc(N(C)CCc3ncon3)nc2C1=O
[c] CC(C)N1Cc2c(Nc3ccc(C4CCCCC4)cc3)nc(N(C)CC(F)F)nc2C1=O
Prompt: hey, can you rank those compounds up there by EC50? biggest number first please Response format: the labels, sorted as the prompt asks.
Completion: c, b, a

[A] CC(C)N1Cc2c(Nc3ccc(OC4CCCC4)cc3)nc(N3CCO[C@H](C)C3)nc2C1=O
[B] CC(C)c1ccc(Nc2nc(N3CCSCC3)nc3c2CN(C(C)C)C3=O)cc1
Prompt: Could you point out whether the larger EC50 belongs to A or to B ? # answer = label of selected item
Completion: A

---

# target-of-assay: KCC2 (Homo sapiens, UniProt Q9H2X9)
# Sequence (Q9H2X9 whole entry): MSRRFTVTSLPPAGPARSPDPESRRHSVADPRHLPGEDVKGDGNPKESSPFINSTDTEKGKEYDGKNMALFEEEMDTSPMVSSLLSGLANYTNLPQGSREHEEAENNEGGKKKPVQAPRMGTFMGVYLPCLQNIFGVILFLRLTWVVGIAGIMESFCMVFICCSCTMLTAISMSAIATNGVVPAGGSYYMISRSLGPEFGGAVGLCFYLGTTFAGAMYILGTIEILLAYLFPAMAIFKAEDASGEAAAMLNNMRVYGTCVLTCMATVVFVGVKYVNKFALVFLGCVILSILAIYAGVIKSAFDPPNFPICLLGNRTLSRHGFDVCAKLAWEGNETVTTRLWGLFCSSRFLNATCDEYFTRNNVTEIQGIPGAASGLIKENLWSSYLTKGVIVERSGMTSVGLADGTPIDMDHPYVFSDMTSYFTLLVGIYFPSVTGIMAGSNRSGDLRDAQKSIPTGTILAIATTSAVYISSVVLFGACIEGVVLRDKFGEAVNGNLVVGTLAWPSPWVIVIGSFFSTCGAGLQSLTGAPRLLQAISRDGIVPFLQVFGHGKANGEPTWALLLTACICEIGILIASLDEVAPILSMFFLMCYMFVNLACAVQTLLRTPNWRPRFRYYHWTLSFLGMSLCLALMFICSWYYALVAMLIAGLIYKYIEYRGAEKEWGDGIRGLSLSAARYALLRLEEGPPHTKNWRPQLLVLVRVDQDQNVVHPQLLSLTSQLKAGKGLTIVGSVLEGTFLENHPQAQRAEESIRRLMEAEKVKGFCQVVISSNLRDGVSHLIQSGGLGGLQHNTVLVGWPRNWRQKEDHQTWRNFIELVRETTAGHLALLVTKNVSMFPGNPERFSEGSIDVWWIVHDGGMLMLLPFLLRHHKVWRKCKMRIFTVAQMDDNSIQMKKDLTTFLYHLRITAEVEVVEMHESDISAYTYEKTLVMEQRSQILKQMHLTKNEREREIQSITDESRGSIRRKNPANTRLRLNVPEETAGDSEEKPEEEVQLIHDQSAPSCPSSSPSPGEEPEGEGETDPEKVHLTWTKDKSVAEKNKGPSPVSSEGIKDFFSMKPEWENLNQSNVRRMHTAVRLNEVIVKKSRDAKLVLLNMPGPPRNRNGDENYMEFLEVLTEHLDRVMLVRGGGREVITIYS
# test-summary: KCC2 thallium transport FLIPR-based assay (Tl+ influx in HEK293 cells expressing KCC2)
# assay-setup: 90 min compound incubation at RT, thallium flux at 120 s used to determine EC50
measured-parameter: EC50 (µM)

Before answering, review these 2 worked examples.
Prompt: Please list EC50 recorded for the compound CC(C)N1Cc2c(Nc3ccc(C(C)(C)C)cc3)nc(N3CCOCC3)nc2C1=O [Example 87]
Completion: 8.18

Prompt: Please report EC50 for the following compound: CN(C)C(=O)CN1Cc2nc(C3=CCOCC3)nc(Nc3ccc(C4CCCCC4)cc3)c2C1 [Example 111]
Completion: 5.35

[a] CC(=O)Nc1cnc2nc(N3CCO[C@H](C)C3)nc(Nc3ccc(C4CCCCC4)cc3)c2c1 [Example 107]
[b] Cc1ccccc1-c1ccc(Nc2nc(C3=CCOCC3)nc3c2CN(C(C)C)C3=O)cc1 [Example 80]
Prompt: Problem: Given the entries a and b , determine which has the lower reported EC50. Indicate which entry you chose by stating its label.
Completion: b
